Values from patent US20190194323A1

target.of.assay: T1, Siglec-7-ECD (human, UniProt Q9Y286 19-353)
T1 construct: also called p75; AIRM
measurement.description: monovalent Fab; bio-layer interferometry (ForteBio) per Methods
Below, each entry is listed with its recorded Kd.
measurement.kind: Kd

[[record]]
binder = "humanized 16H11-derived Fab, VH AK438-4 / VL AK418-2 (Fab, V domains shown, Measured as monovalent Fab; also called No. 17; VH438-4 and VL418-2) VH: QVQLVQSGAEVKKPGSSVKVSCKASGYDFSNFWMNWVRQAPGQGLEWMGQIYPGDGEIKYNQKFQGRVTLTADESTSTAYMELSSLRSEDTAVYFCARDDYLRAMDYWGQGTLVTVSS VL: DIQMTQSPSSLSASVGDRVTITCRASGNIHNYLAWYQQKPGKAPKFLLYSAKRLESGVPSRFSGSGSGTDYTLTISSLQPEDFATYYCQHFWSSPYTFGGGTKVEIK"
observed = "< 0.075 nM"

[[record]]
binder = "humanized 16H11-derived Fab, VH AK417-17 / VL AK426-2 (Fab, V domains shown, Measured as monovalent Fab; also called No. 9) VH: QVQLVQSGAEVKKPGSSVKVSCKASGYDFSNFWMNWVRQAPGQGLEWMGGIYPGDGEINYAQKFQGRVTITADESTSTAYMELSSLRSEDTAVYYCARDDYLRAMDIWGQGTMVTVSS VL: DIQMTQSPSSLSASVGDRVTITCRASQNIHNYLAWYQQKPGKAPKLLLYSAKRLASGVPSRFSGSGSGTDYTLTISSLQPEDFATYYCQHFWSSPYTFGGGTKVEIK"
observed = "> 0.5 nM"

[[record]]
binder = "humanized 16H11-derived Fab, VH AK443-1 / VL AK418-2 (Fab, V domains shown, Measured as monovalent Fab; also called No. 23; VH443-1 and VL418-2) VH: QVQLVQSGAEVKKPGSSVKVSCKGSGYDFSNFWMNWVRQAPGQGLEWMGQIYPGDGEIKYNQKFQGRVTITADESTSTAYMELSSLRSEDTAVYYCARDDYLRAMDIWGQGTMVTVSS VL: DIQMTQSPSSLSASVGDRVTITCRASGNIHNYLAWYQQKPGKAPKFLLYSAKRLESGVPSRFSGSGSGTDYTLTISSLQPEDFATYYCQHFWSSPYTFGGGTKVEIK"
observed = "< 0.075 nM"

